- Tested on: C-33-A (Cervical Carcinoma);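 note: after 72 h of two-drug dosing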
- assayMethodText: Bliss excess, mean over the matrix (fraction); higher = more synergy
// not met strictly below 0.01 in Bliss excess; met otherwise

>  <compound>
C[C@@H]1COCCN1c1cc(C2([S@](C)(=N)=O)CC2)nc(-c2ccnc3[nH]ccc23)n1 [AZD6738] + O=C(c1cc(Cc2n[nH]c(=O)c3ccccc23)ccc1F)N1CCN(C(=O)C2CC2)CC1 [Olaparib] (first compound max 10 µM, 7x7, partner max 10 µM)

>  <cat>
not met

$$$$
>  <compound>
C=CCn1c(=O)c2cnc(Nc3ccc(N4CCN(C)CC4)cc3)nc2n1-c1cccc(C(C)(C)O)n1 [AZD1775] + O=C(c1cc(Cc2n[nH]c(=O)c3ccccc23)ccc1F)N1CCN(C(=O)C2CC2)CC1 [Olaparib] (first compound max 1 µM, partner max 10 µM)

>  <cat>
not met

$$$$
>  <compound>
COc1nnc2ccc(N3CCC(c4ccc(OCCN5CCN(C)C(=O)[C@H]5C)cc4)CC3)nn12 [AZD5153] + Cc1c2c(nn1C)CSCc1cc(n(C)n1)CSc1cc(c3ccccc3c1)OCCCc1c(C(=O)O)n(C)c3c-2c(Cl)ccc13 [AZD5991] (first compound max 1 µM, 7x7, partner max 1 µM)

>  <cat>
met

$$$$
>  <compound>
Cc1c2c(nn1C)CSCc1cc(n(C)n1)CSc1cc(c3ccccc3c1)OCCCc1c(C(=O)O)n(C)c3c-2c(Cl)ccc13 [AZD5991] + C1CN(CCC1(C(=O)N[C@@H](CCO)C2=CC=C(C=C2)Cl)N)C3=NC=NC4=C3C=CN4 [Capivasertib] (first compound max 1 µM, 7x7, partner max 3 µM)

>  <cat>
not met

$$$$
>  <compound>
CN(CCO)CC[C@H](CSc1ccccc1)Nc1ccc(S(=O)(=O)NC(=O)c2ccc(N3CCC([C@@H](O)c4ccccc4-c4ccc(Cl)cc4)CC3)cc2)cc1S(=O)(=O)C(F)(F)F [AZD4320] + Nc1ccn([C@@H]2O[C@H](CO)[C@@H](O)C2(F)F)c(=O)n1 [Gemcitabine] (first compound max 1 µM, 7x7, partner max 0.3 µM)

>  <cat>
met

$$$$
>  <compound>
CC1(C)CCC(CN2CCN(c3ccc(C(=O)NS(=O)(=O)c4ccc(NCC5CCOCC5)c([N+](=O)[O-])c4)c(Oc4cnc5[nH]ccc5c4)c3)CC2)=C(c2ccc(Cl)cc2)C1 [Venetoclax] + C=CCn1c(=O)c2cnc(Nc3ccc(N4CCN(C)CC4)cc3)nc2n1-c1cccc(C(C)(C)O)n1 [AZD1775] (first compound max 1 µM, partner max 1 µM)

>  <cat>
met

$$$$
>  <compound>
COc1nnc2ccc(N3CCC(c4ccc(OCCN5CCN(C)C(=O)[C@H]5C)cc4)CC3)nn12 [AZD5153] + C=CCn1c(=O)c2cnc(Nc3ccc(N4CCN(C)CC4)cc3)nc2n1-c1cccc(C(C)(C)O)n1 [AZD1775] (first compound max 1 µM, partner max 1 µM)

>  <cat>
not met

$$$$
>  <compound>
CC1(C)CCC(CN2CCN(c3ccc(C(=O)NS(=O)(=O)c4ccc(NCC5CCOCC5)c([N+](=O)[O-])c4)c(Oc4cnc5[nH]ccc5c4)c3)CC2)=C(c2ccc(Cl)cc2)C1 [Venetoclax] + COc1cc(Nc2ncc3c(n2)-c2ccc(Cl)cc2C(c2c(F)cccc2OC)=NC3)ccc1C(=O)O [Alisertib] (first compound max 1 µM, 7x7, partner max 10 µM)

>  <cat>
not met

$$$$
>  <compound>
Cc1cc2ncnn2cc1Nc1ncc2c(n1)n(C1CCOCC1)c(=O)n2C [AZD7648] + COc1cc([C@@H]2c3cc4c(cc3[C@@H](O[C@@H]3O[C@@H]5CO[C@@H](C)O[C@H]5[C@H](O)[C@H]3O)[C@H]3COC(=O)[C@H]23)OCO4)cc(OC)c1O [Etoposide] (first compound max 10 µM, 7x7, partner max 10 µM)

>  <cat>
met

$$$$
>  <compound>
CN(CCO)CC[C@H](CSc1ccccc1)Nc1ccc(S(=O)(=O)NC(=O)c2ccc(N3CCC([C@@H](O)c4ccccc4-c4ccc(Cl)cc4)CC3)cc2)cc1S(=O)(=O)C(F)(F)F [AZD4320] + C[C@@H](Nc1cc(F)cc(F)c1)c1cc(C(=O)N(C)C)cc2c(=O)cc(N3CCOCC3)oc12 [AZD8186] (first compound max 1 µM, 7x7, partner max 3 µM)

>  <cat>
not met

$$$$
>  <compound>
Cc1nc(Nc2ncc(C(=O)Nc3c(C)cccc3Cl)s2)cc(N2CCN(CCO)CC2)n1 [Dasatinib] + CC(=O)Nc1cccc(-n2c(=O)n(C3CC3)c(=O)c3c(Nc4ccc(I)cc4F)n(C)c(=O)c(C)c32)c1 [Trametinib] (first compound max 2 µM, 7x7, partner max 1 µM)

>  <cat>
met

$$$$
>  <compound>
CCc1c2c(nc3ccc(O)cc13)-c1cc3c(c(=O)n1C2)COC(=O)[C@]3(O)CC [SN-38] + O=C(c1cc(Cc2n[nH]c(=O)c3ccccc23)ccc1F)N1CCN(C(=O)C2CC2)CC1 [Olaparib] (first compound max 0.3 µM, 7x7, partner max 10 µM)

>  <cat>
met

$$$$
>  <compound>
NC1(C(=O)N[C@@H](CCO)c2ccc(Cl)cc2)CCN(c2ncnc3[nH]ccc23)CC1 [Capivasertib] + COc1nnc2ccc(N3CCC(c4ccc(OCCN5CCN(C)C(=O)[C@H]5C)cc4)CC3)nn12 [AZD5153] (first compound max 10 µM, 7x7, partner max 1 µM)

>  <cat>
met

$$$$
>  <compound>
CN(CCO)CC[C@H](CSc1ccccc1)Nc1ccc(S(=O)(=O)NC(=O)c2ccc(N3CCC([C@@H](O)c4ccccc4-c4ccc(Cl)cc4)CC3)cc2)cc1S(=O)(=O)C(F)(F)F [AZD4320] + CC(=O)O[C@H]1C(=O)[C@@]2(C)[C@H]([C@H](OC(=O)c3ccccc3)[C@]3(O)C[C@H](OC(=O)[C@H](O)[C@@H](NC(=O)c4ccccc4)c4ccccc4)C(C)=C1C3(C)C)[C@]1(OC(C)=O)CO[C@@H]1C[C@@H]2O [Paclitaxel] (first compound max 1 µM, 7x7, partner max 3 µM)

>  <cat>
met

$$$$
>  <compound>
N#Cc1cnc(Nc2cc(NC[C@H]3CNCCO3)c(C(F)(F)F)cn2)cn1 [SRA737] + O=c1[nH]cc(F)c(=O)[nH]1 [5-Fluorouracil] (first compound max 10 µM, 7x7, partner max 20 µM)

>  <cat>
not met

$$$$
